Sourced from patent US8802674B2

# target-desc: LRRK2 (Homo sapiens (Human), UniProt Q5S007, G2019S)
# Sequence (Q5S007 970-2527 G2019S limits assumed): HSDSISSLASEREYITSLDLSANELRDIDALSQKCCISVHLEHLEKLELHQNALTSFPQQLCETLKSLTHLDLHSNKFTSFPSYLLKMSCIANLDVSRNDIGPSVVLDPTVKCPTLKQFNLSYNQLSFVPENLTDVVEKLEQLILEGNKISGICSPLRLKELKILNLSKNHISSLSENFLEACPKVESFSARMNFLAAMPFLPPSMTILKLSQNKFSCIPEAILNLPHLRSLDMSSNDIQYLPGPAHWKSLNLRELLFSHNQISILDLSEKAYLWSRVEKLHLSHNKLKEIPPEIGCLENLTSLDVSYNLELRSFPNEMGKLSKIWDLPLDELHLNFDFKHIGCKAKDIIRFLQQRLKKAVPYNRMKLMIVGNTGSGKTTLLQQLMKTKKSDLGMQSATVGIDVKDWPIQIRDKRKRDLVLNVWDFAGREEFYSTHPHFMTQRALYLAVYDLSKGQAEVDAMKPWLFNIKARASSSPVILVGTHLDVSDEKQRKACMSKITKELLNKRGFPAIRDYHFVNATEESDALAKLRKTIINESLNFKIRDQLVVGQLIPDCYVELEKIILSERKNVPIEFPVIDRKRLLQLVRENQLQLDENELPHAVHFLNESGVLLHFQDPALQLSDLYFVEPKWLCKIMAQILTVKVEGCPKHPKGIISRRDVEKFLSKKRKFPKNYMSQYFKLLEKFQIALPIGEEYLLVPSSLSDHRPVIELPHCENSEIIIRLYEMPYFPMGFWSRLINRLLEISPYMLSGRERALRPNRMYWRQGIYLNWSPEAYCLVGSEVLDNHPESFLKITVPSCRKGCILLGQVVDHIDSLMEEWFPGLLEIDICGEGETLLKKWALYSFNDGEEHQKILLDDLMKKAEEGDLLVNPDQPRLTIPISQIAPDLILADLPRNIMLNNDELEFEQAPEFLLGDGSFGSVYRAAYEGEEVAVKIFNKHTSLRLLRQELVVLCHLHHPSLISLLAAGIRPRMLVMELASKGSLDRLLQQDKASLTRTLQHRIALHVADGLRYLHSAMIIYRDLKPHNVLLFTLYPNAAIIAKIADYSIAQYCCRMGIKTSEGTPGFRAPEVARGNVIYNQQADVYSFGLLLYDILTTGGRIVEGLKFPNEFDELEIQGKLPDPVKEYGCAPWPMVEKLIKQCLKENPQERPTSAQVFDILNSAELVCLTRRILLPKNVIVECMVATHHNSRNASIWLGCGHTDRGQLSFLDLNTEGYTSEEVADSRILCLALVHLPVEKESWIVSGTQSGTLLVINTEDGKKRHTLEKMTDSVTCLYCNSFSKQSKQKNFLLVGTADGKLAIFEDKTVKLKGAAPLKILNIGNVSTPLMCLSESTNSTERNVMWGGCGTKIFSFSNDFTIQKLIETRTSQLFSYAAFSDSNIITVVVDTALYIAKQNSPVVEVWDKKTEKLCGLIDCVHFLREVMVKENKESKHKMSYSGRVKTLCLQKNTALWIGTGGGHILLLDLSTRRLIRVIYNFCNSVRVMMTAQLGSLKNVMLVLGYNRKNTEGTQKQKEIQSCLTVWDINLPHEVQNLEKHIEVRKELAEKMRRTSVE
# assay-overview: In Vitro LRRK2 LabChip Assay
# Type: biochemical
# cond: Table 4
Items are presented alongside their recorded Ki.
observed-property: Ki (nM)

{"compound": "CNc1nc(Nc2cc(OC)c(C(=O)N3CCC(OC)C3)cc2Cl)ncc1C(F)(F)F (stereo not drawn)", "value-unit": "nM", "value": 5}
{"compound": "CNc1nc(Nc2ccc(C(=O)N3CCC(C(C)(C)O)CC3)cc2OC)ncc1Br", "value-unit": "nM", "value": 2.4}
{"compound": "CNc1nc(Nc2ccc(C(=O)N3CC[C@H](F)C3)cc2OC)ncc1C#N", "value-unit": "nM", "value": 6}
{"compound": "COc1cc(CC(=O)N2CCOCC2)ccc1Nc1ncc(Br)c(OC)n1", "value-unit": "nM", "value": 5.6}
{"compound": "CCN(CC)C(=O)c1ccc(Nc2ncc(C#N)c(NC)n2)c(OC)c1", "value-unit": "nM", "value": 6.8}
{"compound": "CCNc1nc(Nc2cc(OC)c(C(=O)NC3CC3)cc2Cl)ncc1C(F)(F)F", "value-unit": "nM", "value": 3.5}
{"compound": "CCNc1nc(Nc2ccc(C(=O)N3CCOCC3)c(F)c2OC)ncc1C(F)(F)F", "value-unit": "nM", "value": 1.8}
{"compound": "CNc1nc(Nc2cc(F)c(C(=O)N3CCC(C#N)C3)cc2OC)ncc1C(F)(F)F (stereo not drawn)", "value-unit": "nM", "value": 1.8}
{"compound": "CNc1nc(Nc2ccc(C(=O)N3CCN(C(=O)C4CC4)CC3)cc2OC)ncc1Cl", "value-unit": "nM", "value": 2.2}
{"compound": "CNc1nc(Nc2cc(OC)c(C(=O)N3CCOC(CO)C3)cc2Cl)ncc1Cl (stereo not drawn)", "value-unit": "nM", "value": 6.9}
{"compound": "CNc1nc(Nc2cc(OC)c(C(=O)N3CCC(N(C)C)CC3)cc2Cl)ncc1Cl", "value-unit": "nM", "value": 2.8}
{"compound": "COCCNc1nc(Nc2cc(F)c(C(=O)N3CCOCC3)cc2OC)ncc1Br", "value-unit": "nM", "value": 6.9}
{"compound": "CNc1nc(Nc2ccc(C(=O)N3C4CCC3COC4)cc2OC)ncc1Cl", "value-unit": "nM", "value": 2.5}
{"compound": "CNc1nc(Nc2cc(OC)c(C(=O)N(C)C)cc2Cl)ncc1C(F)(F)F", "value-unit": "nM", "value": 6.8}
{"compound": "CNc1nc(Nc2ccc(C(=O)N3CCOCC3)cc2OC(F)(F)F)ncc1C(F)(F)F", "value-unit": "nM", "value": 11.2}
{"compound": "CCNc1nc(Nc2cc(F)c(C(=O)N3CCOCC3)cc2OC)ncc1Cl", "value-unit": "nM", "value": 2.5}
{"compound": "CNc1nc(Nc2ccc(C(=O)N3CC[C@@H](O)C3)cc2OC)ncc1Br", "value-unit": "nM", "value": 5.1}
{"compound": "CNc1nc(Nc2cc(F)c(C(=O)N3C[C@@H](C)O[C@@H](C)C3)cc2OC)ncc1C(F)(F)F", "value-unit": "nM", "value": 8}
